B1: TRIM39 (parent)
chain: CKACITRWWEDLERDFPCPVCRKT

Variants of: B1
protocolNotes: protein stability index of a GFP-peptide fusion (GPS, HEK-293T) (PSI 1-6); higher = more stable;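 note: lentivirally expressed fusions sorted by FACS into six bins by GFP to DsRed ratio, PSI derived from sequencing read proportions per bin multiplied by bin number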
measurementContext: c terminus: a fixed tail appended
Rule: protein stability index under 4 gives Condition not met, otherwise Condition met.

Below are worked cases with known answers.
mutation: L12Q
answerLabel: Condition not met
//
mutation: V20N
answerLabel: Condition met
//
mutation: R22N
answerLabel: Condition met

Prompt: Does protein stability index meet or surpass 4 for `I5A` ?
Response: Condition met

Prompt: Does protein stability index meet or surpass 4 for `W8K` ?
Response: Condition met

Prompt: Does protein stability index meet or surpass 4 for `P19Q` ?
Response: Condition not met

Prompt: Does protein stability index meet or surpass 4 for `T24C` ?
Response: Condition not met

Prompt: Does protein stability index meet or surpass 4 for `W8R` ?
Response: Condition met
